Collected cytotoxicity at 10 µM values appear next to each entry.
assay: Toxicity liver stage against HepG2, at 10uM; assay type: cell-based; parameters: test concentration 10 uM, cell line HepG2-A16-CD81EGFP; conditions: human, HepG2-A16-CD81EGFP cells; read-out: INHIBITION
Reported Property: cytotoxicity at 10 µM (%)

> print(dat)
                                    compound      reported.property  readout.unit  reading
 1  CCNC(=O)[C@@H]1C[C@H](N)CN1C(=O)CCc1ccc(C)c(C)c1  cytotoxicity at 10 µM             %     3.45
 2  Cn1ccnc1NC[C@@H]1CCC[C@@H]2CN(Cc3cccnc3)C[C@@H]21  cytotoxicity at 10 µM             %     5.55
 3  Cc1ccsc1CNC1CCCc2c1cnn2C (centres undefined)  cytotoxicity at 10 µM             %     2.27
 4   O=C(c1cc(Cl)c[nH]1)N1CCN(CCc2ccccn2)CC1  cytotoxicity at 10 µM             %     19.2
 5  COCC(=O)N1CCCCC1c1nc(N(C)C)ncc1-c1cc(C)no1 (centres undefined)  cytotoxicity at 10 µM             %     5.93
 6  O=C1C(Sc2cnn[nH]2)CCCN1c1ccccc1F (centres undefined)  cytotoxicity at 10 µM             %     24.9
 7  Cc1nn(-c2ccccc2Cl)c(C)c1CCC(=O)NCCS(C)(=O)=O  cytotoxicity at 10 µM             %     2.78
 8         CC(C)N1CCOCC2(CCN(c3cnccn3)CC2)C1  cytotoxicity at 10 µM             %     -109
 9           CCOCCN1CCN(Cc2nc(CC(C)C)no2)CC1  cytotoxicity at 10 µM             %      -13
10  Cc1[nH]c(=O)[nH]c(=O)c1CN1CCCC(CCc2ccc(F)cc2F)C1 (centres undefined)  cytotoxicity at 10 µM             %    -1.64
11  CC(C)S(=O)(=O)Cc1cccc(NC(=O)c2ccc[nH]2)c1  cytotoxicity at 10 µM             %   -0.118
12  CC(C)N1CCN(C(=O)c2[nH]nnc2Nc2ccccc2F)CC1  cytotoxicity at 10 µM             %     6.36
13  O=C(c1cc(C2CC2)[nH]n1)N1CCN(Cc2ccsc2)CC1  cytotoxicity at 10 µM             %    -9.04
14      CC(C)c1nnc2ccc(N3CCC(C(=O)O)CC3)nn12  cytotoxicity at 10 µM             %    -1.92
15  CC(C)c1noc(CCC(=O)NCC2CCS(=O)(=O)C2)n1 (centres undefined)  cytotoxicity at 10 µM             %      5.7
16             CN(Cc1cc(Br)cn1C)C(=O)c1cscn1  cytotoxicity at 10 µM             %    -0.37
17  O=S(=O)(CC1CC1)c1ncc(CN2CCOCC2)n1CC1CCCO1 (centres undefined)  cytotoxicity at 10 µM             %    -3.06
18  CC(C)[C@@H]1CN(CCOc2ccc(Cl)cc2)C[C@H]1NS(C)(=O)=O  cytotoxicity at 10 µM             %    -52.4
19        COCCCNC(=O)c1cc(-c2ccc(OC)cc2)nn1C  cytotoxicity at 10 µM             %     1.54
20  O=C(NCCc1ccncc1)c1cccc(S(=O)(=O)N[C@@H]2CCNC2)c1  cytotoxicity at 10 µM             %     4.93
21  Cc1cccc(S(=O)(=O)N2CSCC2C(=O)NCC2CC2)c1 (centres undefined)  cytotoxicity at 10 µM             %    -6.14
22  CCC1C=CCN1C(=O)c1cc(COc2ccccc2OC)[nH]n1 (centres undefined)  cytotoxicity at 10 µM             %     2.93
23  CC(=O)N1N=C(COc2ccc(Cl)cc2)OC1c1ccccc1 (centres undefined)  cytotoxicity at 10 µM             %     9.87
24  Cc1cc(C)n2nc(C(=O)N[C@H]3C[C@H]4CN(C)CCN4C3)cc2n1  cytotoxicity at 10 µM             %   -0.671
